# assay_explanation: folding stability dG unfold (combined trypsin and chymotrypsin); higher = more stable
measurement_type: folding stability dG unfold

Sample answers from the record:
MTTETLEEEEIPEEGIRIETVRTTDASGKPSTETVVTYEEVPLEPENTAPPVKFDDKGKRYNPGIGLEGLDS [r1_270_JUSTAS]: < -1 kcal/mol
SAKAKVVEIKEENGKVIIKIEVEDENGNKKTIEIELPKDDIEIVEVDEDKIVIYNKKTGKKITLDLKDLSAG [r14_947_TrROS_Hall]: > 6 kcal/mol

Now for another entry.
What does the record list as folding stability dG unfold for SAGGSAGGSAGGPEWKEIDIPFDTPEDAIDEAEDKLPPDDKIDVHNPDDGQPITFTVPRNSAGGSAGGSAGG [r7_877_TrROS] ?
< -1 kcal/mol
